Tested on: E. coli
Experiment: MIC-based assay for potentiation of antibiotics that are known efflux pump substrates (Test A), E. coli
Format: cell-based
Conditions: fold lowering of MIC of antibiotic (e.g., clarithromycin and levofloxacin) with EPI compound at 1.6 to 12.5 μg/mL; Escherichia coli ATCC 25922
Structures can show the parent of a compound that is named as a salt.
measurement type: Active in E. coli

Solved entries:
NCC(N)COC(CCc1ccccc1)CCc1ccccc1 (centres unmarked) [Example 11]    <2x
NCCC[C@H](N)CNCC(CCc1ccccc1)CCc1ccccc1 [Example 7]    ≥32x
NC[C@@H](N)CCCNCC(CCc1ccccc1)CCc1ccccc1 [Example 8, 2,2,2-trifluoroacetate]    ≥32x
NCC(N)COCC(CCc1ccccc1)CCc1ccccc1 (centres unmarked) [Example 12]    8 x
CC(C)C(N)CC[C@H](N)CNC(CCc1ccccc1)CCc1ccccc1.Cl.Cl.Cl (some centres unmarked) [Example 10]    ≥256 x
NCC[C@H](N)CNC(CCc1ccccc1)CCc1ccccc1 [Example 3]    ≥4x
NCCC[C@H](N)CNC(CCc1ccccc1)CCc1ccccc1 [Example 1, TFA]    ≥8x
CC(C)C(N)CC[C@H](N)CNCC(CCc1ccccc1)CCc1ccccc1 (some centres unmarked) [Example 9]    ≥128x
NC[C@@H](N)CCCNC(CCc1ccccc1)CCc1ccccc1 [Example 2, TFA]    ≥16x
NCC[C@H](N)CCNC(CCc1ccccc1)CCc1ccccc1 [Example 5, TFA]    ≥32x

Now take the following molecule into account.
Indicate the recorded Active in E. coli value for this molecule: NC[C@@H](N)CCNC(CCc1ccccc1)CCc1ccccc1 [Example 4, TFA]
≥2x
